Target: T1, human CD73 (huCD73) protein, antigen of the Biacore assay (human, UniProt P21589 27-547, limits assumed)
T1 construct: also called human CD73 antigen
T1 sequence (looked up): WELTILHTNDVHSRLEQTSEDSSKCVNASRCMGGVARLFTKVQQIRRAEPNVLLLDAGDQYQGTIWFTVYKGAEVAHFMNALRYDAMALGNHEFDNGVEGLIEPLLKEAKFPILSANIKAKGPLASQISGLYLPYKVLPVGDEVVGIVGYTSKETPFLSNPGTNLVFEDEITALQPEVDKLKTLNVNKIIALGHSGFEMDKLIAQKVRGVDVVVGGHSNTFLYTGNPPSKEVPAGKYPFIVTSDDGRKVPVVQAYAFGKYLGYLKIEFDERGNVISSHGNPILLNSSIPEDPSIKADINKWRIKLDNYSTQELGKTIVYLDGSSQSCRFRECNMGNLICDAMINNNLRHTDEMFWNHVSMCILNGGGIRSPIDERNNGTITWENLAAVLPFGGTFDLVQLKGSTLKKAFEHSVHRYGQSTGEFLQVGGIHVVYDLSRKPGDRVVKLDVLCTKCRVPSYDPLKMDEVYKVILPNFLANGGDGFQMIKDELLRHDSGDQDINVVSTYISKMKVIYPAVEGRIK
Assay: SPR Biacore T200; antibody captured on Protein A chip, CD73 in flow; 1:1 Langmuir
VALUE_KIND: kon (M⁻¹ s⁻¹)
Write the value in M⁻¹ s⁻¹ as a bare number.

Examples from the recorded data:
{"BINDER": "Hab127.31g (antibody, V domains shown, VL3 + VH1g, HCDR2 hot-spot variant; full-length antibody) VH: EVQLVQSGAEVKKPGASVKVSCKASGYTFTAYFMNWVRQAPGQGLEWMGRIYHQNVDTFYSQKFKGRVTMTVDKSTSTVYMELSSLRSEDTAVYYCATSYVGDWGQGTTVTVSS VL: DIQMTQSPSSLSASVGDRVTITCRASQDIGDSLNWLQQKPGGALKRLIYATSSLDSGVPSRFSGSGSGTEYTLTISSLQPEDFATYYCLQYASFPWTFGGGTKVEIK", "VALUE_KIND": "kon", "MEASURE_UNIT": "M⁻¹ s⁻¹", "RESULT_VALUE": 163000}
{"BINDER": "Hab108.65 (antibody, V domains shown, VL6 + VH5; full-length antibody) VH: EVTLKESGPVLVKPTETLTLTCTVSGFSLKSYGIQWVRQPPGKLLEWLGVIWSGGSADYNAAFISRLTISKDTSKSQVVLTMTNMDPVDTATYYCAGQYGSVWGQGTLVTVSS VL: DIQMTQSPSSLSASVGDRVTITCRASQDIGDRLNWLQQKPGGAIKRLIYATSSLDSGVPKRFSGSGSGTEYTLTISSLQPEDFATYYCLQYAGSWTFGGGTKVEIK", "VALUE_KIND": "kon", "MEASURE_UNIT": "M⁻¹ s⁻¹", "RESULT_VALUE": 281000}

Qu. Quick one: kon for Hab108.45 (antibody, V domains shown, VL4 + VH5; full-length antibody) VH: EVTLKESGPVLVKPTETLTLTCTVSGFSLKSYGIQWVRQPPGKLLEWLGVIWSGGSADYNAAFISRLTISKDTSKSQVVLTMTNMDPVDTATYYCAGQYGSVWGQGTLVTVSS VL: DIQMTQSPSSLSASVGDRVTITCRASQDIGDRLNWLQQKPGGAIKRLIYATSSLDSGVPSRFSGSGSGSEYTLTISSLQPEDFADYYCLQYAGSWTFGGGTKVEIK ?
Ans. 292000

Qu. Quick one: kon for Hab108.34 (antibody, V domains shown, VL3 + VH4; full-length antibody) VH: EVTLKQSGPGLVKPTETLTLTCTVSGFSLSSYGIQWVRQPPGKGLEWLGVIWSGGSADYNAAFISRLTISKDTSKSQVVLTMTNMDPVDTATYYCAGQYGSVWGQGTLVTVSS VL: DIQMTQSPSSLSASVGDRVTITCRASQDIGDRLNWLQQKPGGAIKRLIYATSSLDSGVPSRFSGSGSGTEYTLTISSLQPEDFATYYCLQYAGSWTFGGGTKVEIK ?
Ans. 106000
